assay: Mouse plasma stability protocol, up to 1 h (Examples 16-18); details: mouse plasma, 1 h, 37° C.
RECORDED_METRIC: % Remaining (1 h, 37° C.) (%)
Just the number please, in %, no unit attached.

**Q:** Which value of % Remaining (1 h, 37° C.) has been reported for CCc1c2c(nc3ccc(O)cc13)-c1cc3c(c(=O)n1C2)COC(=O)C3(CC)OC(=O)CN1CCN(c2ccc(-n3c(O)nnc3-c3cc(C(C)C)c(O)cc3O)cc2)CC1 (stereo not shown) in the records?
**A:** 78

**Q:** CCc1c2c(nc3ccc(OC(=O)N4CCC(Cn5ccc6cc(-n7c(O)nnc7-c7cc(C(C)C)c(O)cc7O)ccc65)CC4)cc13)-c1cc3c(c(=O)n1C2)COC(=O)C3(O)CC (stereo not shown) , same question.
**A:** 57.9

**Q:** CCc1c2c(nc3ccc(OC(=O)N4CCN(c5ccc(-n6c(O)nnc6-c6cc(C(C)C)c(O)cc6O)cc5)CC4)cc13)-c1cc3c(c(=O)n1C2)COC(=O)C3(O)CC (stereo not shown) , same question.
**A:** 45

**Q:** CCNC(=O)c1nnc(-c2cc(C(C)C)c(O)cc2O)n1-c1ccc(OC2CCN(C(=O)CN(C)C(=O)Oc3ccc4nc5c(c(CC)c4c3)Cn3c-5cc4c(c3=O)COC(=O)[C@]4(O)CC)CC2)cc1 , same question.
**A:** 68.6

**Q:** CCNC(=O)c1nnc(-c2cc(C(C)C)c(O)cc2O)n1-c1ccc(CN2CCC(C(=O)N3CCN(C(=O)Oc4ccc5nc6c(c(CC)c5c4)Cn4c-6cc5c(c4=O)COC(=O)C5(O)CC)C(C)C3)CC2)cc1 (stereo not shown) , same question.
**A:** 68.1

**Q:** CCc1c2c(nc3ccc(O)cc13)-c1cc3c(c(=O)n1C2)COC(=O)C3(CC)OC(=O)N1CCN(Cc2ccc(-n3c(O)nnc3-c3cc(C(C)C)c(O)cc3O)cc2)CC1 (stereo not shown) , same question.
**A:** 89

**Q:** CCc1c2c(nc3ccc(OC(=O)N4CCN(Cc5ccc(-n6c(O)nnc6-c6cc(C(C)C)c(O)cc6O)cc5)CC4C)cc13)-c1cc3c(c(=O)n1C2)COC(=O)C3(O)CC (stereo not shown) , same question.
**A:** 78.3

**Q:** CCc1c2c(nc3ccc(O)cc13)-c1cc3c(c(=O)n1C2)COC(=O)C3(CC)OC(=O)CCC(=O)N1CCC(Cc2ccc(-n3c(O)nnc3-c3cc(C(C)C)c(O)cc3O)cc2)CC1 (stereo not shown) , same question.
**A:** 74

**Q:** CCc1c2c(nc3ccc(OC(=O)N4CCN(Cc5ccc(-n6c(O)nnc6-c6cc(C(C)C)c(O)cc6O)cc5)CC4)cc13)-c1cc3c(c(=O)n1C2)COC(=O)C3(O)CC (stereo not shown) , same question.
**A:** 52

**Q:** CCNC(=O)c1nnc(-c2cc(C(C)C)c(O)cc2O)n1-c1ccc(OC2CCN(C(=O)[C@@H]3CCCN3C(=O)Oc3ccc4nc5c(c(CC)c4c3)Cn3c-5cc4c(c3=O)COC(=O)[C@]4(O)CC)CC2)cc1 , same question.
**A:** 67.1
